attribute.measured: melting point (°C)
Express your answer in °C, writing the number without its unit.

- molecule: "C[C@@H]1C[C@H]2[C@@H]3CCC4=CC(=O)C=C[C@]4(C)[C@@]3(F)[C@@H](O)C[C@]2(C)[C@@]1(O)C(=O)CO"
  melting point [°C]: 248

response.value for `CCCCCCCCCCCCCCO` (field: melting point) = 39.5

response.value for `Cc1ccc(N)cc1Cl` (field: melting point) = 26

response.value for `O=C1c2ccccc2C(=O)c2cc(Br)ccc21` (field: melting point) = 206

response.value for `NS(=O)(=O)c1ccc(SCCCCO)cc1` (field: melting point) = 101

response.value for `CCC(=O)c1ccc2ccccc2c1` (field: melting point) = 60

response.value for `CCCCCCCC(C)C` (field: melting point) = -74.6

response.value for `Brc1ccc(-c2ccc(Br)cc2)cc1` (field: melting point) = 164

response.value for `CC(=O)CC(=O)Nc1ccccc1C` (field: melting point) = 105

response.value for `CNC(=O)CSP(=S)(OC)OC` (field: melting point) = 52

response.value for `Clc1cccc(C(Cl)(Cl)Cl)n1` (field: melting point) = 63

response.value for `O=C(O)CNCC(=O)O` (field: melting point) = 248

Cited source: the OPERA property sets (Mansouri et al. 2018)
